- system-tested: furin, P09958;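 also: purified furin at 1:10 enzyme:substrate in 50 mM HEPES pH 7.5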
- Sequence (P09958 whole entry): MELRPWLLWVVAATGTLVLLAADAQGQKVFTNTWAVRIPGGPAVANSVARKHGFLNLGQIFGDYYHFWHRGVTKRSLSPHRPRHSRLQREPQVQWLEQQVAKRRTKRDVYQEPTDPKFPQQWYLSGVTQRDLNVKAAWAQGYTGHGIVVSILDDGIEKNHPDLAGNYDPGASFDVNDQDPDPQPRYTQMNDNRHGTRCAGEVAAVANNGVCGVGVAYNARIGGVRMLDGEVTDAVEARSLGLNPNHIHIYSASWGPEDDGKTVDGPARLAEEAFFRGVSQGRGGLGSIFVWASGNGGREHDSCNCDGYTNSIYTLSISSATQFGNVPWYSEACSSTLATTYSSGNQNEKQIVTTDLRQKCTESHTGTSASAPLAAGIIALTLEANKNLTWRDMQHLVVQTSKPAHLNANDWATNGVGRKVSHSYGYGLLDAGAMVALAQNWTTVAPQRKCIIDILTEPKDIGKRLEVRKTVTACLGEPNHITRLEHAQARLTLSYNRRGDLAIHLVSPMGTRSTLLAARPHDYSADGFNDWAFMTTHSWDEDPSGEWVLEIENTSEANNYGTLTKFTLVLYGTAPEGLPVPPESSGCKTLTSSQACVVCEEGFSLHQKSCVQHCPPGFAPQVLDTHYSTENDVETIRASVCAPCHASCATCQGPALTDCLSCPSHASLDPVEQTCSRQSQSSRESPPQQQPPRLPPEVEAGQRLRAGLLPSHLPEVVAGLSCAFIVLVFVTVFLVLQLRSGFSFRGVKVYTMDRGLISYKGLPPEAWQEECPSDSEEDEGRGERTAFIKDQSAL
- assay-remarks: furin cleavage Z-score vs untreated control; higher = more cleavage, active = 3.5 or more, inactive = 1 or less, 8 variable residues between constant flanks
- particulars: 15 min
Some of the results follow. The true hit rate is not given.

| residues | furin cleavage Z-score |
| --- | --- |
| CARRIRPTHPAGNASASA [FS-3048] | -0.376 |
| CARMVRSVKVAGNASASA [FS-1754] | 4.69 |
| CASTPCSLHLAGNASASA [HC2525] | 1.1 |
| CAEVVTSTKVAGNASASA [HC2234] | 0.63 |
| CAKEECSQHLAGNASASA [HC1674] | -0.555 |
| CALEDNVTPIAGNASASA [HC1434] | -0.336 |
| CAEKPCHRPSAGNASASA [HC2334] | 0.292 |
| CASTPCSATLAGNASASA [HC2558] | -0.233 |
| CARWRRHQEGAGNASASA [FS-3132] | 1.08 |
| CANCTTPCSGAGNASASA [HC1961] | -3.89 |
| CARELRNVGVAGNASASA [FS-1695] | 0.756 |
| CASTPCSAILAGNASASA [HC2544] | 1.22 |
| CARTTRSVVHAGNASASA [FS-2837] | 0.171 |
| CAALNRTGRSAGNASASA [FS-748] | 11.6 |
| CAEVPCHRPVAGNASASA [HC2410] | -0.406 |
